Exercise: for every item that follows, state its recorded selectivity ratio.
test: Therapeutic index, ratio of IC50 for african green monkey Vero cells to IC50 for human MCF7 cells expressing ERalpha and ERbeta
condition_description: Vero cells versus MCF7 cells expressing ERalpha and ERbeta
One number for each entry.

CC/C(=C(\c1ccccc1)c1ccc(OCCN(C)Cc2ccc(-c3cn(CCCCCC(=O)NO)nn3)cc2)cc1)c1ccccc1 ... 1.26

Problem: Give selectivity ratio for the following molecule: "CC/C(=C(\c1ccccc1)c1ccc(OCCN(C)Cc2ccc(NC(=O)CCCCCCC(=O)NO)cc2)cc1)c1ccccc1"
Solution: 0.95

###

Exercise: for every item that follows, state its recorded IC50.
System: MDA-MB-231
test: Cytotoxicity against ERalpha and ERbeta-deficient human MDA-MB-231 cells assessed as growth inhibition after 72 hrs by MTT assay
Assay type: functional, cell-based
condition_description: MDA-MB-231, 72 h
For clarity, give the value followed by its unit.

Would you please look over these solved cases?
C#C[C@]1(O)CC[C@H]2[C@@H]3CCc4cc(O)ccc4[C@H]3CC[C@@]21C [ETHINYL ESTRADIOL] ... 32.9 µM
CC/C(=C(\c1ccccc1)c1ccc(OCCN(C)Cc2ccc(NC(=O)CCCCCCC(=O)NO)cc2)cc1)c1ccccc1 ... 8.1 µM
CC/C(=C(\c1ccccc1)c1ccc(OCCN(C)Cc2ccc(-c3cn(CCCCCC(=O)NO)nn3)cc2)cc1)c1ccccc1 ... 10 µM
C[C@]12CC[C@@H]3c4ccc(O)cc4CC[C@H]3[C@@H]1CC[C@@]2(O)c1cn(CCCCCC(=O)NO)nn1 ... 22.6 µM
C[C@]12CC[C@@H]3c4ccc(O)cc4CC[C@H]3[C@@H]1CC[C@@]2(O)c1cn(CCCCCCCC(=O)NO)nn1 ... 33.9 µM
C[C@]12CC[C@@H]3c4ccc(O)cc4CC[C@H]3[C@@H]1CC[C@@]2(O)c1cn(CCCC(=O)NO)nn1 ... 28.4 µM

Could you tell me IC50 for each of these compounds? They are listed below.
1. CC/C(=C(\c1ccccc1)c1ccc(OCCN(C)C)cc1)c1ccccc1 [TAMOXIFEN]
2. C[C@]12CC[C@@H]3c4ccc(O)cc4CC[C@H]3[C@@H]1CC[C@@]2(O)c1cn(CCCCCCC(=O)NO)nn1

Solution:
["17 µM", "14.1 µM"]

###

Test system: MCF7
test: Cytotoxicity against human MCF7 cells expressing ERalpha and ERbeta assessed as growth inhibition after 72 hrs by MTT assay
Type: functional, cell-based
condition_description: MCF7, 72 h
Exercise: for every item that follows, state its recorded IC50.
One number for each entry, in µM.

CC/C(=C(\c1ccccc1)c1ccc(OCCN(C)Cc2ccc(-c3cn(CCCCCC(=O)NO)nn3)cc2)cc1)c1ccccc1 ... 7.2
CC/C(=C(\c1ccccc1)c1ccc(OCCN(C)Cc2ccc(NC(=O)CCCCCCC(=O)NO)cc2)cc1)c1ccccc1 ... 3.8
C[C@]12CC[C@@H]3c4ccc(O)cc4CC[C@H]3[C@@H]1CC[C@@]2(O)c1cn(CCCCCCC(=O)NO)nn1 ... 37.3
CC/C(=C(\c1ccccc1)c1ccc(OCCN(C)C)cc1)c1ccccc1 ... 15.6

--- query ---
Problem: Give IC50 for the following compound: "C[C@]12CC[C@@H]3c4ccc(O)cc4CC[C@H]3[C@@H]1CC[C@@]2(O)c1cn(CCCC(=O)NO)nn1"
Solution: 22

###

target_desc: Protein deacetylase HDAC6 (Homo sapiens)
Sequence (Q9UBN7 whole entry): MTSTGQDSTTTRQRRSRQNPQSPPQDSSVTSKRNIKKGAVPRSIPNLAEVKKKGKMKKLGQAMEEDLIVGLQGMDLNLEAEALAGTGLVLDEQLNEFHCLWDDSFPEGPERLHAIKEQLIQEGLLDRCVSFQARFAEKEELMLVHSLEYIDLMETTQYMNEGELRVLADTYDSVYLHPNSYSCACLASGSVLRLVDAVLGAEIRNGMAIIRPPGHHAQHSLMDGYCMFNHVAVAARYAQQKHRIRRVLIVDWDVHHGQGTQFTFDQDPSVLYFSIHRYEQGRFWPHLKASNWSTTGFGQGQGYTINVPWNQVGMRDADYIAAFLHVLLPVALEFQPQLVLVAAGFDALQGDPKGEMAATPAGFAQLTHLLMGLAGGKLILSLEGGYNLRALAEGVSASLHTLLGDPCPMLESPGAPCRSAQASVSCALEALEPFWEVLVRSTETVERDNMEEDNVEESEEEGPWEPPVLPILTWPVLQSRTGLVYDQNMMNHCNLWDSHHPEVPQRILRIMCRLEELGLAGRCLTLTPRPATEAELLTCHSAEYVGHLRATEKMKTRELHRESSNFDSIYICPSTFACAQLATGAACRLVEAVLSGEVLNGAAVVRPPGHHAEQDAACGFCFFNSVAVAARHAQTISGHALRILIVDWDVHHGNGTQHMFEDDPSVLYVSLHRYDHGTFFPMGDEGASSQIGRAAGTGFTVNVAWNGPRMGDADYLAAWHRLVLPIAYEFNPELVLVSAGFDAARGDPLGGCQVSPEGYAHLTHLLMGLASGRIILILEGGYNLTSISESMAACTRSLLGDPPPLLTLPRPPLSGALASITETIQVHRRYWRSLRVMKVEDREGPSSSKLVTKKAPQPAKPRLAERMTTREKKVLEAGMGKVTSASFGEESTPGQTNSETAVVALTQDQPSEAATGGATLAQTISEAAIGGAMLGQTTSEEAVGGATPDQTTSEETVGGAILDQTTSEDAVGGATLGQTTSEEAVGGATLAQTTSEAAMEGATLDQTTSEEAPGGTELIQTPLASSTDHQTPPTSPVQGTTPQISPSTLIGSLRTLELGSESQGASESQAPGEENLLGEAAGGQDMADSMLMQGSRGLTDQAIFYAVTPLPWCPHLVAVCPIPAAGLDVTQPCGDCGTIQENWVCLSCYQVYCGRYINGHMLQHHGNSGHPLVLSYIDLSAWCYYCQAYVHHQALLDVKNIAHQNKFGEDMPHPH
test: Inhibition of human recombinant HDAC6 after 30 mins by fluorescence assay
value_kind: pIC50
One number for each entry, as −log10 of the molar value.

Would you please look over these solved cases?
CC/C(=C(\c1ccccc1)c1ccc(OCCN(C)Cc2ccc(NC(=O)CCCCCCC(=O)NO)cc2)cc1)c1ccccc1 ... 6.66
C[C@]12CC[C@@H]3c4ccc(O)cc4CC[C@H]3[C@@H]1CC[C@@]2(O)c1cn(CCCCCCCC(=O)NO)nn1 ... 5.89
C[C@]12CC[C@@H]3c4ccc(O)cc4CC[C@H]3[C@@H]1CC[C@@]2(O)c1cn(CCCCC(=O)NO)nn1 ... 6.85
C[C@]12CC[C@@H]3c4ccc(O)cc4CC[C@H]3[C@@H]1CC[C@@]2(O)c1cn(CCCCCC(=O)NO)nn1 ... 7.49
CC/C(=C(\c1ccccc1)c1ccc(OCCN(C)Cc2ccc(-c3cn(CCCCCC(=O)NO)nn3)cc2)cc1)c1ccccc1 ... 6.25

Could you tell me pIC50 for each of these compounds? They are listed below.
1. C[C@]12CC[C@@H]3c4ccc(O)cc4CC[C@H]3[C@@H]1CC[C@@]2(O)c1cn(CCCC(=O)NO)nn1
2. C[C@]12CC[C@@H]3c4ccc(O)cc4CC[C@H]3[C@@H]1CC[C@@]2(O)c1cn(CCCCCCC(=O)NO)nn1

Solution:
8.10
7.89

###

target_desc: UniProtKB Q9BY41
Sequence (Q9BY41 whole entry): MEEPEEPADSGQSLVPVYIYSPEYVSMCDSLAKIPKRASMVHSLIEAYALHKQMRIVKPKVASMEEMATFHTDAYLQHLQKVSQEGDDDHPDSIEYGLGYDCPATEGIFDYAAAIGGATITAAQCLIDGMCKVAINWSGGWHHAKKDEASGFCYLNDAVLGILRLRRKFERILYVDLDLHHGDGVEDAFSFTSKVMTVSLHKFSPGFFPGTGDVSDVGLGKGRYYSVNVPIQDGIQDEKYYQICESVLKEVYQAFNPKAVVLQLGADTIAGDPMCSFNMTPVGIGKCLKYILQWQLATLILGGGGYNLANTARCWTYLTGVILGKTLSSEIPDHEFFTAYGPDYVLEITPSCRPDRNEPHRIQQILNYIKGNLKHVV
test: Inhibition of human recombinant HDAC8 after 30 mins by fluorescence assay
Mark label 1 for IC50 under 5 µM, label 0 if at or over.

These recorded examples may help you get a feel for the data.
C[C@]12CC[C@@H]3c4ccc(O)cc4CC[C@H]3[C@@H]1CC[C@@]2(O)c1cn(CCCCCCCC(=O)NO)nn1 ... label 0
C[C@]12CC[C@@H]3c4ccc(O)cc4CC[C@H]3[C@@H]1CC[C@@]2(O)c1cn(CCCC(=O)NO)nn1 ... label 0
C[C@]12CC[C@@H]3c4ccc(O)cc4CC[C@H]3[C@@H]1CC[C@@]2(O)c1cn(CCCCCC(=O)NO)nn1 ... label 1

Next, consider the following compound.
Problem: Is it true that IC50 reported for "C[C@]12CC[C@@H]3c4ccc(O)cc4CC[C@H]3[C@@H]1CC[C@@]2(O)c1cn(CCCCCCC(=O)NO)nn1" is less than 5 µM?
Solution: label 1

###

target_desc: Estrogen receptor (Homo sapiens)
Sequence (P03372 whole entry): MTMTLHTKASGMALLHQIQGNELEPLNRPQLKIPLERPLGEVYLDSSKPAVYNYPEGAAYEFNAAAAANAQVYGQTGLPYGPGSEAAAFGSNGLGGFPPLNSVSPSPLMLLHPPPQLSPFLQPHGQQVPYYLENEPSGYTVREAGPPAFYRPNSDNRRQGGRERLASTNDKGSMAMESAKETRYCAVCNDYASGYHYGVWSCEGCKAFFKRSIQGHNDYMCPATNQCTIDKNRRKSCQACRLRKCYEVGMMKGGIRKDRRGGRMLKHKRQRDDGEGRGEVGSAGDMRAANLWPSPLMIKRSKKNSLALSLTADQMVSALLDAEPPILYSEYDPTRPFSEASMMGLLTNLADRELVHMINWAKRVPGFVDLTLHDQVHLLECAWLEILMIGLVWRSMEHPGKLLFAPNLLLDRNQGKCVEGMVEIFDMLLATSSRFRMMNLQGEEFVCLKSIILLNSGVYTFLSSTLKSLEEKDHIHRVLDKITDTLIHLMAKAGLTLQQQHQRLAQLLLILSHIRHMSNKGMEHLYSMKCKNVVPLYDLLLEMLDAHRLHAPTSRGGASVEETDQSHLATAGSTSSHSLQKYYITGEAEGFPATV
test: Antagonist activity at Gal4 DBD-fused human ERalpha LBD expressed in HEK293T cells assessed as inhibition of estradiol-induced transcriptional activation after 20 hrs by luciferase reporter gene assay
Exercise: for every item that follows, state its recorded pIC50.
Numbers only, as −log10 of the molar value.

CC/C(=C(\c1ccccc1)c1ccc(OCCN(C)Cc2ccc(-c3cn(CCCCCC(=O)NO)nn3)cc2)cc1)c1ccccc1 ... 6.61

--- query ---
Problem: Give pIC50 for the following molecule: "CC/C(=C(\c1ccccc1)c1ccc(OCCN(C)Cc2ccc(NC(=O)CCCCCCC(=O)NO)cc2)cc1)c1ccccc1"
Solution: 6.90

###

Exercise: for every item that follows, state its recorded log10 of IC50.
target_desc: Histone deacetylase 1 (Homo sapiens, UniProt Q13547)
Sequence (Q13547 whole entry): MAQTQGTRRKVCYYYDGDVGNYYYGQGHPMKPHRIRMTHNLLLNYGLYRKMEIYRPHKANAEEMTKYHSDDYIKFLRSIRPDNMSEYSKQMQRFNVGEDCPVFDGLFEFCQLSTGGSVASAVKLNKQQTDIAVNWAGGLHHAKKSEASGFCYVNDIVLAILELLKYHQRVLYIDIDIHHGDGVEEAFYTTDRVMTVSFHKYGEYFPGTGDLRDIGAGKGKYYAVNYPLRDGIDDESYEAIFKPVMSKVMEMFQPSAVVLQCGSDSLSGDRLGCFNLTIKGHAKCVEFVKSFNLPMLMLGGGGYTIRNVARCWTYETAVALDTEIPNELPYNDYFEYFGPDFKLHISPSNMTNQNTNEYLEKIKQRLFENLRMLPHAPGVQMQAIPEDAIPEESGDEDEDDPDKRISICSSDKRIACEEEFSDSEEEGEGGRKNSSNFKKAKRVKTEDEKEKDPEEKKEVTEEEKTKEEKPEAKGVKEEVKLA
test: Inhibition of human recombinant HDAC1 after 30 mins by fluorescence assay
In our notation, the value equals log10 of IC50 in nM.

C[C@]12CC[C@@H]3c4ccc(O)cc4CC[C@H]3[C@@H]1CC[C@@]2(O)c1cn(CCCCCCCC(=O)NO)nn1 ... 3.95
C[C@]12CC[C@@H]3c4ccc(O)cc4CC[C@H]3[C@@H]1CC[C@@]2(O)c1cn(CCCCCC(=O)NO)nn1 ... 1.88
C[C@]12CC[C@@H]3c4ccc(O)cc4CC[C@H]3[C@@H]1CC[C@@]2(O)c1cn(CCCCC(=O)NO)nn1 ... 2.60

Could you tell me log10 of IC50 for each of these compounds? They are listed below.
1. C[C@]12CC[C@@H]3c4ccc(O)cc4CC[C@H]3[C@@H]1CC[C@@]2(O)c1cn(CCCCCCC(=O)NO)nn1
2. CC/C(=C(\c1ccccc1)c1ccc(OCCN(C)Cc2ccc(-c3cn(CCCCCC(=O)NO)nn3)cc2)cc1)c1ccccc1
3. C[C@]12CC[C@@H]3c4ccc(O)cc4CC[C@H]3[C@@H]1CC[C@@]2(O)c1cn(CCCC(=O)NO)nn1
4. CC/C(=C(\c1ccccc1)c1ccc(OCCN(C)Cc2ccc(NC(=O)CCCCCCC(=O)NO)cc2)cc1)c1ccccc1

Solution:
1: 1.45; 2: 2.72; 3: 1.18; 4: 3.43
